# study_target: CB1 receptor (Rattus norvegicus, UniProt P20272)
# Construct: membranes were prepared from rat forebrain membranes; from tissue; host or cells: rat forebrain membranes
# Sequence (P20272 whole entry): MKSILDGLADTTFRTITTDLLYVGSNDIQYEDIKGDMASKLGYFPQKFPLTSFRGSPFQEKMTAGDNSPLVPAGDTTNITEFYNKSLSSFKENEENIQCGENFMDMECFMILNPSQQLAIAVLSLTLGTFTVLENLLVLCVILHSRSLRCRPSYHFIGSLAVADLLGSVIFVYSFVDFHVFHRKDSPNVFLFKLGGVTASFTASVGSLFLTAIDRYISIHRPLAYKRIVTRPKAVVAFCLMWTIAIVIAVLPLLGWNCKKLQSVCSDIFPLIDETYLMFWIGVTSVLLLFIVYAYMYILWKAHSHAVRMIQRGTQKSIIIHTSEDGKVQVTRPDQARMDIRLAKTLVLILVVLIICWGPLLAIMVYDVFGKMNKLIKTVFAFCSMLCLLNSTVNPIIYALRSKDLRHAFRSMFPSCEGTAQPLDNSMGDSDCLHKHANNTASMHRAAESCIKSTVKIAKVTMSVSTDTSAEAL
# experiment_notes: CB1 receptor binding assay, [3H]CP-55,940 displacement, rat forebrain membranes
quantity_name: Ki (nM)
Kindly answer with a numeric value in nM, unit omitted.

| compound | assay_value |
| --- | --- |
| O=C(NC12CC3CC(CC(C3)C1)C2)c1nn(CCCCI)c2ccccc12 | 0.596 |
| O=C(Nc1cccc2ccccc12)c1nn(CCCCI)c2ccccc12 | 13.7 |

Now consider a different compound.
Lab note: CN1CCCCC1Cn1nc(C(=O)NC23CC4CC(CC(C4)C2)C3)c2ccccc21 (stereo not drawn) gave Ki of 47.5
